assay: Cytotoxicity against human MRC5 cells assessed as cell viability at 30 uM after 72 hrs by XTT assay; type: cell-based; conditions: read-out: Activity
Binning of viability at 72 h, 30 µM into classes: lo: < 30%; med: ≥ 30% and < 60%; hi: ≥ 60%

Record excerpt, results attached:
smiles_notation | label_class
CCCCCCC/C=C/c1cc(=O)c2ccccc2n1CC | hi
CCCCCCCCCC/C=C/c1cc(=O)c2ccccc2n1CCCC | med
CCCCCCCC/C=C/c1cc(=O)c2ccccc2n1CCC | med
C=CCn1c(/C=C/CCCCCCC)cc(=O)c2ccccc21 | lo
C=CCn1c(/C=C/CCCCCCCCCCCC)cc(=O)c2ccccc21 | hi

Task: Exercise: read the entry "C=CCn1c(/C=C/CCCCCCCC)cc(=O)c2ccccc21" and state which class it falls under.
Output: med

Task: Please give the result for "C#CCn1c(/C=C/CCCCCCCC)cc(=O)c2ccccc21" too.
Output: med

Task: Please give the result for "CCCCCCCCCCC/C=C/c1cc(=O)c2ccccc2n1CCCCC" too.
Output: lo

Task: Please give the result for "CCCCCCCCCCCC/C=C/c1cc(=O)c2ccccc2n1CCCC" too.
Output: lo

Task: Please give the result for "C#CCn1c(/C=C/CCCCCCCCC)cc(=O)c2ccccc21" too.
Output: hi

Task: Please give the result for "C#CCn1c(/C=C/CCCCCCCCCC)cc(=O)c2ccccc21" too.
Output: med

Task: Please give the result for "C=CCn1c(/C=C/CCCCCCCCCCC)cc(=O)c2ccccc21" too.
Output: lo
